Experimental target: hTSHR (Homo sapiens, UniProt P16473)
Construct: expressed in transfected cells
Sequence (P16473 21-764): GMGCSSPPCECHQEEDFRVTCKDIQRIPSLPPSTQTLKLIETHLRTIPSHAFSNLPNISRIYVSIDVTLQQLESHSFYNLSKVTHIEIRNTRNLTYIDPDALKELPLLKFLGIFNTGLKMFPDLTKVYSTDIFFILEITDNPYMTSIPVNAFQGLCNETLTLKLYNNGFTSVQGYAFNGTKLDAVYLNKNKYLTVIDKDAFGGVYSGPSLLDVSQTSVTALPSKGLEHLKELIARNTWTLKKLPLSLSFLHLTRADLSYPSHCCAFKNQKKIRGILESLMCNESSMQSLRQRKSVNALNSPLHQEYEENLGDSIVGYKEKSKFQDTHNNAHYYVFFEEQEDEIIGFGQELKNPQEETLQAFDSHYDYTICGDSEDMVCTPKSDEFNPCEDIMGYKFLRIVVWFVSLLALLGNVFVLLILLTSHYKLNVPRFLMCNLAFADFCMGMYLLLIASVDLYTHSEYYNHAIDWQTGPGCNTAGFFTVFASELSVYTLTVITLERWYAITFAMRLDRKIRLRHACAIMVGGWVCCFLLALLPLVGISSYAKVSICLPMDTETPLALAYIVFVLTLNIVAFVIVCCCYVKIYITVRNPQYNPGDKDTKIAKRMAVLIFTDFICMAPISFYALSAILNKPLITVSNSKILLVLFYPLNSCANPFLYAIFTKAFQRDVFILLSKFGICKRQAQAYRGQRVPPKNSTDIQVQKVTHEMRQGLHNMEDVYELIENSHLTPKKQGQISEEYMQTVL
Assay remarks: cAMP (HTRF) in CHO cells transfected with hTSHR
Type: cell-based
Run parameters: compounds in presence of EC20 ligand (Figure 1 legend); mean ± SEM
# EC50 values compiled below
Record the result as a number with its unit.

COc1cc2c(cc1-c1cnn(CCO)c1)-c1c(c(C(=O)N(C)C(C)(C)C)nn1-c1cc(Cl)cc(Cl)c1)CO2 : 0.505 µM

Please find the next compound below.
Exercise: Missing value: EC50, hTSHR (Homo sapiens, UniProt P16473), entry `COc1cc(C(N)=O)cc(-c2cc3c(cc2OC)OCc2c(C(=O)N(C)C(C)(C)C)nn(-c4cc(Cl)cc(Cl)c4)c2-3)n1` . Fill in?
Key: 0.17 µM

---

Experimental target: hFSHR (Homo sapiens, UniProt P23945)
Construct: expressed in transfected cells
Sequence (P23945 18-695): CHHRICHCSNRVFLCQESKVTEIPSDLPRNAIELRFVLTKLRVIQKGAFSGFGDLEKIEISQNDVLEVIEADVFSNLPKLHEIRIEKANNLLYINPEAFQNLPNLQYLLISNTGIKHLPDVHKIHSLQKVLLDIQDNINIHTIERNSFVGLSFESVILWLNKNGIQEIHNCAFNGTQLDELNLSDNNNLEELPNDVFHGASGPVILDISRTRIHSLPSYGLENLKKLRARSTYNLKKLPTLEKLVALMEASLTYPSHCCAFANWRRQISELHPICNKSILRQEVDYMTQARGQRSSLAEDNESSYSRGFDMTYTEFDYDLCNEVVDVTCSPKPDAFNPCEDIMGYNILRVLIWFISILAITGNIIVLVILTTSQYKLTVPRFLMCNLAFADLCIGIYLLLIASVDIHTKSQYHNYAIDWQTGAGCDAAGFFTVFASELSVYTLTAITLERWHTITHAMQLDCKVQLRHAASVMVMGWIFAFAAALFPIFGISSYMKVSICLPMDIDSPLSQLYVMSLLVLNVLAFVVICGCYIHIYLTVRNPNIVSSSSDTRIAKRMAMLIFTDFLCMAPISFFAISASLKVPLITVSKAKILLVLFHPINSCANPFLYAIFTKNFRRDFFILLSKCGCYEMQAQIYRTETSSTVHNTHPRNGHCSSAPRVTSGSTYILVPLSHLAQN
Assay remarks: cAMP (HTRF) in CHO cells transfected with hFSHR
Type: cell-based
Run parameters: compounds in presence of EC20 ligand (Figure 1 legend); mean ± SEM
# EC50 values compiled below
Respond numerically; units are nM and should not be typed.

COc1cc(C(N)=O)cc(-c2cc3c(cc2OC)OCc2c(C(=O)N(C)C(C)(C)C)nn(-c4cc(Cl)cc(Cl)c4)c2-3)n1 : 2.2

Please find the next molecule below.
Exercise: // lookup EC50 for `COc1cc2c(cc1-c1cnn(CCO)c1)-c1c(c(C(=O)N(C)C(C)(C)C)nn1-c1cc(Cl)cc(Cl)c1)CO2`
Key: 9.72
